System: PC-3 prostate
Assay: NCI tumour cell line growth inhibition, 48 h; in the data active = GI50 below about 0.43 µM; inactive = the rest
Outcomes: label 1 for active, label 0 for inactive

[[record]]
molecule = "Nc1n[nH]c2ccc([C@@H]3Nc4ccc5[nH]ncc5c4[C@H]4[C@H]5CCC(C5)[C@H]43)cc12"
tested_system = "PC-3 prostate"
class_name = "label 1"

[[record]]
molecule = "CC1(C)N=C(N)N=C(N)N1c1ccc(CCCCc2ccc(S(=O)(=O)F)cc2)cc1"
tested_system = "PC-3 prostate"
class_name = "label 1"

[[record]]
molecule = "CNC(=O)c1ccccc1CC1(O)c2ccccc2Oc2ccccc21"
tested_system = "PC-3 prostate"
class_name = "label 0"

[[record]]
molecule = "CCC(C)C1NC(=O)c2nc(oc2-c2ccccc2)-c2csc(n2)-c2csc(n2)-c2nc(oc2C)-c2coc(n2)CNC(=O)C(C(C)CC)NC1=O (configuration not stated)"
tested_system = "PC-3 prostate"
class_name = "label 1"

[[record]]
molecule = "C=CC(=O)N[C@H]1C=C(C)c2c(-c3cnc4ccccc4c3)c3c(N)ncnc3n2C1"
tested_system = "PC-3 prostate"
class_name = "label 0"

[[record]]
molecule = "C=C1C(O)C2CCC(C)(C)C(=O)C2=C(CC(C)C)C12CC2 (configuration not stated)"
tested_system = "PC-3 prostate"
class_name = "label 0"

[[record]]
molecule = "CCN1CCN(c2nc(NCCCNc3ccnc4cc(Cl)ccc34)c3ccccc3n2)CC1"
tested_system = "PC-3 prostate"
class_name = "label 0"

[[record]]
molecule = "CCn1c(-c2nonc2N)nc2c(C#CCN)ncc(OCCCN)c21"
tested_system = "PC-3 prostate"
class_name = "label 0"

[[record]]
molecule = "N#CC(=C1SCS1)[N+](=O)[O-]"
tested_system = "PC-3 prostate"
class_name = "label 0"

[[record]]
molecule = "CC(C)(C)c1cc(O)c(O)c(C(C)(C)C)c1"
tested_system = "PC-3 prostate"
class_name = "label 0"

[[record]]
molecule = "O=C(/C=C/c1ccc(Cl)cc1)c1ccc(Cl)cc1Cl"
tested_system = "PC-3 prostate"
class_name = "label 0"

[[record]]
molecule = "COc1ccc(NC(=O)Nc2n[nH]c3ccccc23)cc1"
tested_system = "PC-3 prostate"
class_name = "label 0"

[[record]]
molecule = "CN(C)CC(=O)N1CCC(c2ccc(NC(=O)c3ncc(C#N)[nH]3)c(C3=CCCCC3)c2)CC1"
tested_system = "PC-3 prostate"
class_name = "label 0"

[[record]]
molecule = "O=C(c1cccs1)c1c(C(F)(F)F)n([O-])c2ccccc2[n+]1=O"
tested_system = "PC-3 prostate"
class_name = "label 0"

[[record]]
molecule = "Cc1nn(-c2ccc(F)cc2)c2ncnc(Nc3ccc(NC(=O)Nc4ccc(Cl)c(C(F)(F)F)c4)cc3)c12"
tested_system = "PC-3 prostate"
class_name = "label 0"

[[record]]
molecule = "Cc1ccn2c3c(c(C(=O)O)c2c1)C(=O)c1ccccc1C3=O"
tested_system = "PC-3 prostate"
class_name = "label 0"

[[record]]
molecule = "C#Cc1cnc(=O)n(C2CC(O)C(CO)O2)c1 (configuration not stated)"
tested_system = "PC-3 prostate"
class_name = "label 0"


---

Tested on: OVCAR-8 ovarian
Assay: NCI tumour cell line growth inhibition, 48 h; in the data active means GI50 below about 0.43 µM; inactive means the rest
Outcomes: active, inactive

[[record]]
compound = "CCn1c(-c2nonc2N)nc2c(C#CCN)ncc(OCCCN)c21"
class_name = "inactive"

[[record]]
compound = "C=C1C(=O)O[C@H]2[C@H]1CC/C(CNC(=O)c1c[nH]c3ccc(F)cc13)=C\\CC[C@@]1(C)O[C@@H]21"
class_name = "inactive"

[[record]]
compound = "COC(=O)C1OC(O[C@H]2CCC3(C)C(CCC4(C)C3CC=C3C5CC(C)(C)CCC5(C(=O)O)CC[C@]34C)C2(C)C)C(O)C(OC2OC(CO)C(O)C(O)C2O)C1O (stereo partly drawn)"
class_name = "inactive"

[[record]]
compound = "C=CC(=O)N[C@H]1C=C(C)c2c(-c3cnc4ccccc4c3)c3c(N)ncnc3n2C1"
class_name = "inactive"

[[record]]
compound = "Fc1cccc(COc2ccc(Nc3ncncc3C#Cc3ccccc3)cc2Cl)c1"
class_name = "inactive"

[[record]]
compound = "CCCCCCCCCCCCCC(=S)NCCCC[C@H](NC(=O)OCc1ccccc1)C(=O)Nc1ccccc1"
class_name = "inactive"

[[record]]
compound = "Cc1ccn2c3c(c(C(=O)O)c2c1)C(=O)c1ccccc1C3=O"
class_name = "inactive"

[[record]]
compound = "O=C(NNc1nc2c(F)cccc2n2cccc12)c1cnccn1"
class_name = "active"


---

System: IGROV1 ovarian
Assay: NCI tumour cell line growth inhibition, 48 h
Metric: TGI (µM)

[[record]]
compound = "c1cc(-c2cnc(-c3ccc4c(c3)CCCO4)o2)ccn1"
tested_system = "IGROV1 ovarian"
metric = "TGI"
relation_qualifier = "="
value_reported = 36.5

[[record]]
compound = "O=C(c1cccs1)c1c(C(F)(F)F)n([O-])c2ccccc2[n+]1=O"
tested_system = "IGROV1 ovarian"
metric = "TGI"
relation_qualifier = "="
value_reported = 2.29

[[record]]
compound = "CCOC(=O)C1=C(C)N(c2ccccc2)C2=C(C(=O)N(c3ccccc3)C2c2ccccc2)C1c1ccccc1 (stereo not given)"
tested_system = "IGROV1 ovarian"
metric = "TGI"
relation_qualifier = ">"
value_reported = 100

[[record]]
compound = "Cc1cc(=O)cc2sc3c(C)cccc3nc1-2"
tested_system = "IGROV1 ovarian"
metric = "TGI"
relation_qualifier = "="
value_reported = 54.9

[[record]]
compound = "CCOC(=O)c1cc2c([N+](=O)[O-])c(NC(C)=O)ccc2s1"
tested_system = "IGROV1 ovarian"
metric = "TGI"
relation_qualifier = ">"
value_reported = 100


---

Tested on: SN12C renal
Assay: NCI tumour cell line growth inhibition, 48 h; in the data active = GI50 below about 0.43 µM; inactive = the rest
Outcomes: active, inactive

[[record]]
compound = "COc1ccc(C(=S)N2CCN(c3cccc(Cl)c3)CC2)cc1"
class_name = "inactive"

[[record]]
compound = "COc1cccc(/C=C/C(=O)c2cc3c(N)c(C(=O)Nc4ccccc4C)sc3nc2C)c1"
class_name = "inactive"

[[record]]
compound = "Cc1ccn2c3c(c(C(=O)O)c2c1)C(=O)c1ccccc1C3=O"
class_name = "inactive"

[[record]]
compound = "CN1CCN(Cc2ccc(C(=O)Nc3cncc(C#Cc4cnc(N)c5ccccc45)c3)cc2C(F)(F)F)CC1"
class_name = "inactive"

[[record]]
compound = "COc1ccc(NC(=O)Nc2n[nH]c3ccccc23)cc1"
class_name = "inactive"

[[record]]
compound = "COC(=O)C1OC(O[C@H]2CCC3(C)C(CCC4(C)C3CC=C3C5CC(C)(C)CCC5(C(=O)O)CC[C@]34C)C2(C)C)C(O)C(OC2OC(CO)C(O)C(O)C2O)C1O (stereo not given in full)"
class_name = "inactive"

[[record]]
compound = "O=C(c1ccc2ccccc2c1)c1c(C(F)(F)F)n([O-])c2cc(Cl)c(Cl)cc2[n+]1=O"
class_name = "inactive"

[[record]]
compound = "Cc1[nH]c(/C=C2\\C(=O)Nc3ccc(S(=O)(=O)Cc4c(Cl)cccc4Cl)cc32)c(C)c1C(=O)N1CCC[C@@H]1CN1CCCC1"
class_name = "inactive"

[[record]]
compound = "N#CC(=C1SCS1)[N+](=O)[O-]"
class_name = "inactive"

[[record]]
compound = "O=C(Nc1cccc(-n2ccc3c(NC(=O)c4ccccc4)nccc32)c1)c1cccc(C(F)(F)F)c1"
class_name = "active"


---

Test system: SK-OV-3 ovarian
Assay: NCI tumour cell line growth inhibition, 48 h
Metric: TGI (µM)

[[record]]
molecule = "NC(N)=N/N=C(/c1ccccc1)c1ccc(F)cc1"
tested_system = "SK-OV-3 ovarian"
metric = "TGI"
relation_qualifier = "="
value_reported = 12.8

[[record]]
molecule = "COC(=O)c1cc(CC(C)C)c2c(c1)[nH]c1ccccc12"
tested_system = "SK-OV-3 ovarian"
metric = "TGI"
relation_qualifier = ">"
value_reported = 100

[[record]]
molecule = "COc1ccc(Nc2[nH]c(C(C)=O)c(N)c2C(=S)Nc2ccccc2)cc1"
tested_system = "SK-OV-3 ovarian"
metric = "TGI"
relation_qualifier = ">"
value_reported = 100

[[record]]
molecule = "CCOc1ccc(S(=O)(=O)/N=C2\\C=C(SCC(=O)O)C(=O)c3ccccc32)cc1"
tested_system = "SK-OV-3 ovarian"
metric = "TGI"
relation_qualifier = "="
value_reported = 29.7

[[record]]
molecule = "C#CCNC(=O)NC(CCCNC(=O)OCc1ccccc1)C(=O)OCc1ccccc1 (stereo not given)"
tested_system = "SK-OV-3 ovarian"
metric = "TGI"
relation_qualifier = ">"
value_reported = 100

[[record]]
molecule = "COc1ncc(C=C(C#N)C#N)c(OC)n1"
tested_system = "SK-OV-3 ovarian"
metric = "TGI"
relation_qualifier = ">"
value_reported = 100

[[record]]
molecule = "CCn1cc(C(c2ccc(Cl)cc2)n2ccnc2)c2cc(Br)ccc21 (stereo not given)"
tested_system = "SK-OV-3 ovarian"
metric = "TGI"
relation_qualifier = "="
value_reported = 33.3

[[record]]
molecule = "CC(C)(C)C(=O)C(CC(=O)c1ccccc1)C(=O)C(C)(C)C"
tested_system = "SK-OV-3 ovarian"
metric = "TGI"
relation_qualifier = ">"
value_reported = 100

[[record]]
molecule = "COc1ccc(N2C(=O)C3c4[nH]c5ccc([N+](=O)[O-])cc5c4C4CCC(C(C)(C)C)CC4C3C2=O)cc1 (stereo not given)"
tested_system = "SK-OV-3 ovarian"
metric = "TGI"
relation_qualifier = ">"
value_reported = 100

[[record]]
molecule = "COc1ccc(/C=C/C=C(/C#N)C(N)=S)cc1"
tested_system = "SK-OV-3 ovarian"
metric = "TGI"
relation_qualifier = ">"
value_reported = 100

[[record]]
molecule = "N#CC(=C1SCS1)[N+](=O)[O-]"
tested_system = "SK-OV-3 ovarian"
metric = "TGI"
relation_qualifier = "="
value_reported = 43.3

[[record]]
molecule = "CC(C)=CCN1CC(C)C(=O)Nc2cc(Cl)ccc21 (stereo not given)"
tested_system = "SK-OV-3 ovarian"
metric = "TGI"
relation_qualifier = "="
value_reported = 84.4

[[record]]
molecule = "O=c1[nH]c2ccccc2cc1C(Cl)=C(Cl)Cl"
tested_system = "SK-OV-3 ovarian"
metric = "TGI"
relation_qualifier = ">"
value_reported = 100

[[record]]
molecule = "Brc1cccc(-c2cc(-c3ccc4c(c3)OCCO4)[nH]n2)c1"
tested_system = "SK-OV-3 ovarian"
metric = "TGI"
relation_qualifier = "="
value_reported = 43.6

[[record]]
molecule = "COC1OC(=O)[C@H]2O[N+]([O-])=C(C)[C@@H]12 (stereo not given in full)"
tested_system = "SK-OV-3 ovarian"
metric = "TGI"
relation_qualifier = ">"
value_reported = 100

[[record]]
molecule = "C=C1C(O)C2CCC(C)(C)C(=O)C2=C(CC(C)C)C12CC2 (stereo not given)"
tested_system = "SK-OV-3 ovarian"
metric = "TGI"
relation_qualifier = ">"
value_reported = 100

[[record]]
molecule = "CCOC(=O)c1c(NC(=O)c2ccccc2)sc2c1CCCC2"
tested_system = "SK-OV-3 ovarian"
metric = "TGI"
relation_qualifier = ">"
value_reported = 100

[[record]]
molecule = "O=C1CC(=O)N(c2ccccc2)N1/C(=C/c1ccccc1)c1ccccc1"
tested_system = "SK-OV-3 ovarian"
metric = "TGI"
relation_qualifier = "="
value_reported = 76.5

[[record]]
molecule = "COc1cc2oc(-c3ccc(O)cc3)c(OC3OC(C)C(O)C(O)C3O)c(=O)c2c(O)c1OC (stereo not given)"
tested_system = "SK-OV-3 ovarian"
metric = "TGI"
relation_qualifier = ">"
value_reported = 100

[[record]]
molecule = "C=CC(=O)Nc1cccc(-c2nc(SC)nc(Nc3ccccc3OC)c2C#N)c1"
tested_system = "SK-OV-3 ovarian"
metric = "TGI"
relation_qualifier = "="
value_reported = 26.9

[[record]]
molecule = "Cc1cc2c(c(C(=O)NCCC(=O)O)c1)Oc1c(cc(C)cc1C(=O)NCCC(=O)O)S2"
tested_system = "SK-OV-3 ovarian"
metric = "TGI"
relation_qualifier = ">"
value_reported = 100

[[record]]
molecule = "CSC1=NC=CCN1C"
tested_system = "SK-OV-3 ovarian"
metric = "TGI"
relation_qualifier = ">"
value_reported = 100

[[record]]
molecule = "CC(=O)C(CN1CCCCC1)C(c1ccccc1)c1c(O)c2ccccc2oc1=O (stereo not given)"
tested_system = "SK-OV-3 ovarian"
metric = "TGI"
relation_qualifier = ">"
value_reported = 100

[[record]]
molecule = "N#Cc1c(NC(=O)c2cccc(C(F)(F)F)c2)sc2c1CCC(=O)C2"
tested_system = "SK-OV-3 ovarian"
metric = "TGI"
relation_qualifier = "="
value_reported = 6.19

[[record]]
molecule = "CCOc1ccc(N/C(=C(/C(Cl)=C(/Cl)NCCN)[N+](=O)[O-])n2nnc3ccccc32)cc1"
tested_system = "SK-OV-3 ovarian"
metric = "TGI"
relation_qualifier = ">"
value_reported = 100

[[record]]
molecule = "CSC1=Nc2ccccc2N(C)c2c1c(-c1ccccc1)nn2C"
tested_system = "SK-OV-3 ovarian"
metric = "TGI"
relation_qualifier = ">"
value_reported = 100

[[record]]
molecule = "COc1ccc(Nc2c(C#N)c3n(c4ccccc24)c2ccccc2[n+]3C)cc1OC"
tested_system = "SK-OV-3 ovarian"
metric = "TGI"
relation_qualifier = "="
value_reported = 23.3

[[record]]
molecule = "COC1(C(=O)N2Cc3nc(Cl)nc(N[C@H](C)c4cc(N)cc(C(F)(F)F)c4)c3C2)CCOCC1"
tested_system = "SK-OV-3 ovarian"
metric = "TGI"
relation_qualifier = "="
value_reported = 58.5

[[record]]
molecule = "FC(F)(F)c1nc(-c2ccccc2Cl)[nH]c1C(F)(F)F"
tested_system = "SK-OV-3 ovarian"
metric = "TGI"
relation_qualifier = "="
value_reported = 2.45

[[record]]
molecule = "CC(C)C(Sc1nc(-c2ccccc2)c(-c2ccccc2)[nH]1)C(=O)NNC(=S)Nc1ccccc1 (stereo not given)"
tested_system = "SK-OV-3 ovarian"
metric = "TGI"
relation_qualifier = "="
value_reported = 45.3

[[record]]
molecule = "Cc1[nH]c(/C=C2\\C(=O)Nc3ccc(S(=O)(=O)Cc4c(Cl)cccc4Cl)cc32)c(C)c1C(=O)N1CCC[C@@H]1CN1CCCC1"
tested_system = "SK-OV-3 ovarian"
metric = "TGI"
relation_qualifier = "="
value_reported = 59.1

[[record]]
molecule = "COc1cc(COC(=O)N[C@H](C(=O)O)C(C)(C)C)c([N+](=O)[O-])cc1OC"
tested_system = "SK-OV-3 ovarian"
metric = "TGI"
relation_qualifier = ">"
value_reported = 100

[[record]]
molecule = "Cc1cc(=O)cc2sc3c(C)cccc3nc1-2"
tested_system = "SK-OV-3 ovarian"
metric = "TGI"
relation_qualifier = ">"
value_reported = 100

[[record]]
molecule = "CN=C(N)N/N=C(\\c1ccccc1)c1ccc(Br)cc1"
tested_system = "SK-OV-3 ovarian"
metric = "TGI"
relation_qualifier = "="
value_reported = 12.3

[[record]]
molecule = "COc1ccc2c(c1)c1c(n2CCN2CCOCC2)-c2ccccc2CC1"
tested_system = "SK-OV-3 ovarian"
metric = "TGI"
relation_qualifier = ">"
value_reported = 100

